- System: HCC 2998
- procedure_text: Cytotoxicity against human HCC2998 cells
- Assay type: functional
endpoint_label: LC50 (µM)

>>> number("CC1=C([Se]CC(OC(=O)[C@@H](CO)NC(=O)OC(C)(C)C)C(=O)NCCCCCC(=O)OCc2ccccc2)C(=O)c2ccccc2C1=O (some centres undefined)")
6.17
>>> number("CC1=C(SCCC(=O)OC(C[Se]C2=C(C)C(=O)c3ccccc3C2=O)C(=O)NCCCCCC(=O)OCc2ccccc2)C(=O)c2ccccc2C1=O (centres undefined)")
46.8
>>> number("CC1=C([Se]CC(OC(=O)[C@@H](CSSC(C)(C)C)NC(=O)C(C)(C)C)C(=O)NCCCCCC(=O)OCc2ccccc2)C(=O)c2ccccc2C1=O (some centres undefined)")
7.24
>>> number("CC1=C([Se]CC(OC(=O)[C@@H](CO)NC(=O)OC(C)(C)C)C(=O)NC(C)(C)C)C(=O)c2ccccc2C1=O (some centres undefined)")
5.75

----------
- Test system: UO-31
- procedure_text: Cytotoxicity against human UO31 cells
- Format: functional
Item-by-item account of GI50
endpoint_label: GI50 (nM)

>>> number("CC1=C([Se]CC(OC(=O)[C@@H](CSSC(C)(C)C)NC(=O)C(C)(C)C)C(=O)NCCCCCC(=O)OCc2ccccc2)C(=O)c2ccccc2C1=O (some centres undefined)")
1480
>>> number("CC1=C(SCCC(=O)OC(C[Se]C2=C(C)C(=O)c3ccccc3C2=O)C(=O)NCCCCCC(=O)OCc2ccccc2)C(=O)c2ccccc2C1=O (centres undefined)")
2510
>>> number("CC1=C([Se]CC(OC(=O)[C@@H](CO)NC(=O)OC(C)(C)C)C(=O)NCCCCCC(=O)OCc2ccccc2)C(=O)c2ccccc2C1=O (some centres undefined)")
1550
>>> number("CC1=C([Se]CC(OC(=O)[C@@H](CO)NC(=O)OC(C)(C)C)C(=O)NC(C)(C)C)C(=O)c2ccccc2C1=O (some centres undefined)")
1450

----------
- System: SK-MEL-28
- procedure_text: Cytotoxicity against human SK-MEL-28 cells
- Type: functional
- condition_context: read-out: pTGI (converted)
A collection of compounds and their measured TGI
endpoint_label: TGI

>>> result("CC1=C([Se]CC(OC(=O)[C@@H](CO)NC(=O)OC(C)(C)C)C(=O)NC(C)(C)C)C(=O)c2ccccc2C1=O (some centres undefined)")
"3.55 µM"
>>> result("CC1=C([Se]CC(OC(=O)[C@@H](CSSC(C)(C)C)NC(=O)C(C)(C)C)C(=O)NCCCCCC(=O)OCc2ccccc2)C(=O)c2ccccc2C1=O (some centres undefined)")
"3.55 µM"
>>> result("CC1=C(SCCC(=O)OC(C[Se]C2=C(C)C(=O)c3ccccc3C2=O)C(=O)NCCCCCC(=O)OCc2ccccc2)C(=O)c2ccccc2C1=O (centres undefined)")
"24.5 µM"
>>> result("CC1=C([Se]CC(OC(=O)[C@@H](CO)NC(=O)OC(C)(C)C)C(=O)NCCCCCC(=O)OCc2ccccc2)C(=O)c2ccccc2C1=O (some centres undefined)")
"3.24 µM"

----------
Quick reference for LC50 among some compounds
- System: SK-MEL-5
- procedure_text: Cytotoxicity against human SK-MEL-5 cells
- Format: functional
endpoint_label: LC50 (µM)

>>> number("CC1=C(SCCC(=O)OC(C[Se]C2=C(C)C(=O)c3ccccc3C2=O)C(=O)NCCCCCC(=O)OCc2ccccc2)C(=O)c2ccccc2C1=O (centres undefined)")
39.8
>>> number("CC1=C([Se]CC(OC(=O)[C@@H](CO)NC(=O)OC(C)(C)C)C(=O)NC(C)(C)C)C(=O)c2ccccc2C1=O (some centres undefined)")
5.5
>>> number("CC1=C([Se]CC(OC(=O)[C@@H](CSSC(C)(C)C)NC(=O)C(C)(C)C)C(=O)NCCCCCC(=O)OCc2ccccc2)C(=O)c2ccccc2C1=O (some centres undefined)")
5.89
>>> number("CC1=C([Se]CC(OC(=O)[C@@H](CO)NC(=O)OC(C)(C)C)C(=O)NCCCCCC(=O)OCc2ccccc2)C(=O)c2ccccc2C1=O (some centres undefined)")
5.5

----------
The molecules listed here are annotated with their TGI.
- Tested on: U-251
- procedure_text: Cytotoxicity against human U251 cells
- Format: functional
- condition_context: read-out: pTGI (converted)
endpoint_label: TGI (µM)

>>> number("CC1=C(SCCC(=O)OC(C[Se]C2=C(C)C(=O)c3ccccc3C2=O)C(=O)NCCCCCC(=O)OCc2ccccc2)C(=O)c2ccccc2C1=O (centres undefined)")
13.5
>>> number("CC1=C([Se]CC(OC(=O)[C@@H](CO)NC(=O)OC(C)(C)C)C(=O)NC(C)(C)C)C(=O)c2ccccc2C1=O (some centres undefined)")
2.57
>>> number("CC1=C([Se]CC(OC(=O)[C@@H](CO)NC(=O)OC(C)(C)C)C(=O)NCCCCCC(=O)OCc2ccccc2)C(=O)c2ccccc2C1=O (some centres undefined)")
2.19
>>> number("CC1=C([Se]CC(OC(=O)[C@@H](CSSC(C)(C)C)NC(=O)C(C)(C)C)C(=O)NCCCCCC(=O)OCc2ccccc2)C(=O)c2ccccc2C1=O (some centres undefined)")
2.82

----------
- Tested on: SN12C
- procedure_text: Cytotoxicity against human SN12C cells
- Assay type: functional
Below, each entry is listed with its recorded GI50.
endpoint_label: GI50 (nM)

>>> number("CC1=C(SCCC(=O)OC(C[Se]C2=C(C)C(=O)c3ccccc3C2=O)C(=O)NCCCCCC(=O)OCc2ccccc2)C(=O)c2ccccc2C1=O (centres undefined)")
4680
>>> number("CC1=C([Se]CC(OC(=O)[C@@H](CO)NC(=O)OC(C)(C)C)C(=O)NC(C)(C)C)C(=O)c2ccccc2C1=O (some centres undefined)")
1860
>>> number("CC1=C([Se]CC(OC(=O)[C@@H](CO)NC(=O)OC(C)(C)C)C(=O)NCCCCCC(=O)OCc2ccccc2)C(=O)c2ccccc2C1=O (some centres undefined)")
1950
>>> number("CC1=C([Se]CC(OC(=O)[C@@H](CSSC(C)(C)C)NC(=O)C(C)(C)C)C(=O)NCCCCCC(=O)OCc2ccccc2)C(=O)c2ccccc2C1=O (some centres undefined)")
2000

----------
Listing of entries alongside the reported GI50.
- System: MOLT-4
- procedure_text: Cytotoxicity against human MOLT4 cells
- Assay type: functional
endpoint_label: GI50 (nM)

>>> number("CC1=C([Se]CC(OC(=O)[C@@H](CSSC(C)(C)C)NC(=O)C(C)(C)C)C(=O)NCCCCCC(=O)OCc2ccccc2)C(=O)c2ccccc2C1=O (some centres undefined)")
3240
>>> number("CC1=C([Se]CC(OC(=O)[C@@H](CO)NC(=O)OC(C)(C)C)C(=O)NC(C)(C)C)C(=O)c2ccccc2C1=O (some centres undefined)")
447
>>> number("CC1=C(SCCC(=O)OC(C[Se]C2=C(C)C(=O)c3ccccc3C2=O)C(=O)NCCCCCC(=O)OCc2ccccc2)C(=O)c2ccccc2C1=O (centres undefined)")
4070
>>> number("CC1=C([Se]CC(OC(=O)[C@@H](CO)NC(=O)OC(C)(C)C)C(=O)NCCCCCC(=O)OCc2ccccc2)C(=O)c2ccccc2C1=O (some centres undefined)")
1380

----------
Readings of GI50 for the listed compounds
- System: MDA-MB-468
- procedure_text: Cytotoxicity against human MDA-MB-468 cells
- Type: functional
endpoint_label: GI50 (nM)

>>> number("CC1=C([Se]CC(OC(=O)[C@@H](CO)NC(=O)OC(C)(C)C)C(=O)NCCCCCC(=O)OCc2ccccc2)C(=O)c2ccccc2C1=O (some centres undefined)")
1480
>>> number("CC1=C([Se]CC(OC(=O)[C@@H](CO)NC(=O)OC(C)(C)C)C(=O)NC(C)(C)C)C(=O)c2ccccc2C1=O (some centres undefined)")
759
>>> number("CC1=C([Se]CC(OC(=O)[C@@H](CSSC(C)(C)C)NC(=O)C(C)(C)C)C(=O)NCCCCCC(=O)OCc2ccccc2)C(=O)c2ccccc2C1=O (some centres undefined)")
2190
>>> number("CC1=C(SCCC(=O)OC(C[Se]C2=C(C)C(=O)c3ccccc3C2=O)C(=O)NCCCCCC(=O)OCc2ccccc2)C(=O)c2ccccc2C1=O (centres undefined)")
3020

----------
- Test system: HCT-116
- procedure_text: Cytotoxicity against human HCT116 cells
- Assay type: functional
Here the recorded LC50 is given for each entry.
endpoint_label: LC50

>>> result("CC1=C([Se]CC(OC(=O)[C@@H](CO)NC(=O)OC(C)(C)C)C(=O)NC(C)(C)C)C(=O)c2ccccc2C1=O (some centres undefined)")
"5.37 µM"
>>> result("CC1=C([Se]CC(OC(=O)[C@@H](CSSC(C)(C)C)NC(=O)C(C)(C)C)C(=O)NCCCCCC(=O)OCc2ccccc2)C(=O)c2ccccc2C1=O (some centres undefined)")
"8.91 µM"
>>> result("CC1=C([Se]CC(OC(=O)[C@@H](CO)NC(=O)OC(C)(C)C)C(=O)NCCCCCC(=O)OCc2ccccc2)C(=O)c2ccccc2C1=O (some centres undefined)")
"5.37 µM"
>>> result("CC1=C(SCCC(=O)OC(C[Se]C2=C(C)C(=O)c3ccccc3C2=O)C(=O)NCCCCCC(=O)OCc2ccccc2)C(=O)c2ccccc2C1=O (centres undefined)")
"11.7 µM"
